- Assayed system: Glutamate NMDA receptor
- Protocol summary: Inhibitory concentration of compound required to displace [3H]TCP 1-[ 1-(2-thienyl)cyclohexyl]piperidine in whole rat brain homogenate
Property measured: IC50 (nM)
Just the number in nM, nothing appended.

CN[C@]12CCCC[C@H]1CCc1ccccc12 : 14.7
c1ccc2c(c1)C[C@H]1CN[C@@]23CCCC[C@@H]13 : 86
CN1CC[C@]23CCCC[C@@]12c1ccccc1CC3 : 16.8
CN1C[C@@H]2Cc3ccccc3[C@]13CCCC[C@@H]23 : 137

Kindly consider the entry below.
Give the measured IC50 of c1ccc2c(c1)CC[C@@]13CCCC[C@]21NCC3 .
151

---

- Protocol summary: Log P value at pH 7.4
- Format: physicochemical
- Applied conditions: buffer
Label condition met when logD is strictly below 0.9; otherwise label condition not met.

Answered examples (3):
c1ccc2c(c1)C[C@H]1CN[C@@]23CCCC[C@@H]13 : condition met
CN1C[C@@H]2Cc3ccccc3[C@]13CCCC[C@@H]23 : condition not met
CN1CC[C@]23CCCC[C@@]12c1ccccc1CC3 : condition met

Field: below-cutoff. Rule: recorded logD strictly less than 0.9. Subject: CN[C@]12CCCC[C@H]1CCc1ccccc12
condition not met

Entry C[C@]12N[C@H](Cc3ccccc31)c1ccccc12 please
condition not met
